# Study Target: T1, hK1 (human tissue kallikrein 1), recombinant (human, UniProt P06870 25-262)
# T1 construct: Expressed in P. pastoris from KLK1 cDNA and purified; enzymatically active; also called KLK1; Recombinant (Pichia) Kallikrein
# Measurement Description: SPR
Attribute Measured: log10(koff) (log10 of the value in s⁻¹)
The base-10 logarithm of koff, taken with koff in s⁻¹, is what appears here.

{"columns": ["Binder", "log10(koff)"],
 "data": [
  ["M0109-A11 (Fab, V domains shown) VH: EVQLLESGGGLVQPGGSLRLSCAASGFTFSNYTMTWVRQAPGKGLEWVSVIYPSGGHTTYADSVKGRFTISRDNSKNTLYLQMNSLRAEDTAMYYCARGGRWFSLDYWGQGTLVTVSS VL: AQSELTQPASVSGSPGQSITISCTGTSSDVGGYNYLSWYQQHPGKAPKLMIYGVSNRPSGVSTRFSGSKSGNTASLTISGLQAEDEADYYCSSYTSTGTRVFGGGTRLTVLG", -2.46],
  ["M0126-C10 (Fab, V domains shown) VH: EVQLLESGGGLVQPGGSLRLSCAASGFTFSHYKMHWVRQAPGKGLEWVSSIWPSGGGTFYADSVKGRFTISRDNSKNTLYLQMNSLRAEDTAMYYCARTSGGFGAFDIWGQGTMVTVSS VL: DIQMTQSPSSLSASVGDRVTITCRAGQTINNYLNWYQQKPGKAPNLLIYAASNLQSGVPSRFSGSKSGTDFTLTISSLQPEDFATYHCQQTYRTPFTFGGGTRVEIKG", -2.19],
  ["M0135-C12 (Fab, V domains shown) VH: EVQLLESGGGLVQPGGSLRLSCAASGFTFSRYHMSWVRQAPGKGLEWVSSIRPSGGSTIYADSVKGRFTISRDNSKNTLYLQMNSLRAEDTAVYYCAREPRRYYYDSSGSYDAFDIWGQGTMVTVSS VL: AQSELTQPPSMSGTPGQRVIISCSGSNSNIGNNFVYWYQQVAGSAPKLLIFRNNQRPSGVPDRFTVSKSGASASLAIGGLRSEDEADYYCAAWDDSLSGVLFGGGTKVTVLG", -3.42],
  ["M0112-C02 (Fab, V domains shown) VH: EVQLLESGGGLVQPGGSLRLSCAASGFTFSNYYMLWVRQAPGKGLEWVSYIRSSGGSTRYADSVKGRFTISRDNSKNTLYLQMNSLRAEDTAVYYCAKPTVDGAFDYWGQGTLVTVSS VL: DIQMTQSPGTLSLSPGDRATLSCRASQSVSSNYLAWYQQKPGQAPRLLIYGASSRATGIPDRFSGSGSGTDFTLTISRLEPEDFGVYYCQQFGSSLFTFGPGTKVNIKR", -2.28]
]}

Consider the record given below.
So what's the measured log10(koff) for this one? M0110-H11 (Fab, V domains shown) VH: EVQLLESGGGLVQPGGSLRLSCAASGFTFSHYKMEWVRQAPGKGLEWVSRIRPSGGVTKYADSVKGRFTISRDNSKNTLYLQMNSLRAEDTAVYYCTRGGLWDAFDIWGQGTMVTVSS VL: DIQMTQSPSSLSASVGDRVTITCRASQSISSYLNWYQQKPGKAPKLLIYAASSLQSGVPSRFSGSGSGTDFTLTISSLHPEDFATYYCQQTYSTLFTFGPGTKVHIKR
-2.22
